- system: rat P2X7 (Rattus norvegicus (Rat))
- Sequence (Q64663 whole entry): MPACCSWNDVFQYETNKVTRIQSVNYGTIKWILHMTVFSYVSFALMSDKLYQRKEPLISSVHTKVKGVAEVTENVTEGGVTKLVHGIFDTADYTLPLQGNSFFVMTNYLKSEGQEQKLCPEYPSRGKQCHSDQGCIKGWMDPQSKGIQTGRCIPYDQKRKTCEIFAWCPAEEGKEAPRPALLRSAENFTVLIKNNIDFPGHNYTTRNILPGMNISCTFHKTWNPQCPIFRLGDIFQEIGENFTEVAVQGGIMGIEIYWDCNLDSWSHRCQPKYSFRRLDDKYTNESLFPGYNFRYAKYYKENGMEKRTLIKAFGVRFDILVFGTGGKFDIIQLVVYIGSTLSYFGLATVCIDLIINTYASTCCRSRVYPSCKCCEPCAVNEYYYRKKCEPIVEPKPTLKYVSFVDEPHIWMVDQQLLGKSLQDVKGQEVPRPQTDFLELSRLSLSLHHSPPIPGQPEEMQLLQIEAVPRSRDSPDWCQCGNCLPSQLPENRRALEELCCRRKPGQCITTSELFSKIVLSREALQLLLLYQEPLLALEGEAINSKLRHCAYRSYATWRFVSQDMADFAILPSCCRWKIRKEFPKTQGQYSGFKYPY
- test description: Ca2+ flux (FLIPR) in 1321N1 cells expressing recombinant rat P2X7 channel
- run conditions: 250 μM BzATP, Calcium-4 dye
pIC50: −log10 of the molar value.
Give 1 (yes) when the value for pIC50 is at least 7. Give 0 (no) when it is less.

Does O=C(c1cccc(Cl)c1Cl)N1CCc2c(ncnc2-c2cnccn2)C1 have a reported pIC50 of at least 7?
0 (no)

Does CCc1nc2c(c(-c3ccn[nH]3)n1)CC(C)N(C(=O)c1ccc(Cl)c(F)c1Cl)C2 (centres unmarked) have a reported pIC50 of at least 7?
1 (yes)

Does COCCn1ccc(-c2nc(C)nc3c2C[C@@H](C)N(C(=O)c2cccc(C(F)(F)F)c2Cl)C3)n1 (single isomer, unassigned) have a reported pIC50 of at least 7?
1 (yes)

Does O=C(c1cccc(C(F)(F)F)c1Cl)N1CCc2c(ncnc2-c2cccc(F)n2)C1 have a reported pIC50 of at least 7?
0 (no)

Does Cc1nc2c(c(-c3ccn[nH]3)n1)CC(C)N(C(=O)c1cccc(Cl)c1Cl)C2 (centres unmarked) have a reported pIC50 of at least 7?
1 (yes)

* * *

We begin with a simple list: items and their reported pIC50.
- system: P2X7 (Homo sapiens (Human))
- test description: Ca2+ flux (FLIPR) in 1321N1 cells expressing recombinant human P2X7 channel
- Format: cell-based
- run conditions: 250 μM BzATP, Calcium-4 dye
Lab note: report pIC50 as minus log10 of the concentration in molar units, number only.

Past entries and their recorded results:
O=C(c1cccc(Cl)c1Cl)N1CCc2c(ncnc2-c2ccccn2)C1 [Example 11] | 6.38
COCCn1ccc(-c2nc(C)nc3c2C[C@@H](C)N(C(=O)c2cccc(C(F)(F)F)c2Cl)C3)n1 (single isomer, unassigned) [Example 128] | 7.53
Nc1nc2c(c(-c3ccccc3)n1)CCN(C(=O)c1cccc(Cl)c1Cl)C2 [Example 29] | 6.10
Cc1nc2c(c(-c3ccccc3)n1)CCN(C(=O)c1cccc(Cl)c1Cl)C2 [Example 27] | 6.93
O=C(c1cccc(C(F)(F)F)c1F)N1CCc2c(ncnc2-c2ccn[nH]2)C1 [Example 111] | 6.45
Cc1nc2c(c(-c3[nH]ncc3C(F)(F)F)n1)CCN(C(=O)c1cccc(C(F)(F)F)c1Cl)C2 [Example 39] | 7.00
O=C(c1cccc(C(F)(F)F)c1Cl)N1CCc2c(ncnc2-c2nccs2)C1 [Example 37] | 7.92

// fetch pIC50 for O=C(c1cccc(C(F)(F)F)c1Cl)N1CCc2c(ncnc2-c2ccccc2)C1 [Example 1] ; system: P2X7 (Homo sapiens (Human))
7.52

* * *

We begin with a simple list: items and their reported remaining activity at 10 µM.
- system: P2X7 (Homo sapiens (Human))
- test description: P2X7 antagonism in human PBMCs (IL-1β release, ELISA)
- Type: cell-based
- run conditions: test compound 10 μM, IL-1β release in human PBMCs, LPS 30 ng/ml + Bz-ATP 0.5 mM, read-out: PBMC 10 μM (% control)
Please give a number only; it is taken to be in %.

Cc1ccc(C(=O)N2Cc3nc(C)nc(-c4ccn[nH]4)c3CC2C)c(C)c1 (stereo not drawn) [Example 131] | 7.3
Cc1nc2c(c(-c3ccn[nH]3)n1)CC(C)N(C(=O)c1cccc(F)c1C)C2 (stereo not drawn) [Example 134] | 0.4

Field: next compound
Specify reported remaining activity at 10 µM for the compound shown: O=C(c1cccc(C(F)(F)F)c1Cl)N1CCc2c(nc(C3CC3)nc2-c2ccn[nH]2)C1 [Example 57]
-9.6

* * *

- system: rat P2X7 (Rattus norvegicus (Rat))
- test description: Ca2+ flux (FLIPR) in 1321N1 cells expressing recombinant rat P2X7 channel
- Type: cell-based
- run conditions: 250 μM BzATP, Calcium-4 dye
We begin with a simple list: items and their reported IC50.
Please give a number only; it is taken to be in µM.

Past entries and their recorded results:
O=C(c1cccc(Cl)c1Cl)N1CCc2c(ncnc2-c2ccn[nH]2)C1 | 0.489
Cc1nc2c(c(-c3ccn[nH]3)n1)CC(C)N(C(=O)c1cccc(F)c1C)C2 (stereo not shown) | 1.27
Cc1nc2c(c(-c3ccn[nH]3)n1)CC(C)N(C(=O)c1ccc(C#N)cc1C)C2 (stereo not shown) | 4.25

Field: next molecule
Specify reported IC50 for the molecule shown: Cc1c(C(=O)N2CCc3c(ncnc3-c3cnccn3)C2)cccc1C(F)(F)F
6.31

* * *

- system: P2X7 (Homo sapiens (Human))
- test description: Radioligand binding, human P2X7-1321N1 cell membranes, tracer tritiated A-804598
We begin with a simple list: items and their reported pKi.
Lab note: report pKi as minus log10 of the concentration in molar units, number only.

COCCn1ccc(-c2nc(C)nc3c2C[C@@H](C)N(C(=O)c2cccc(C(F)(F)F)c2Cl)C3)n1 (single isomer, unassigned) | 7.50

Specify reported pKi for the compound shown: Cc1nc2c(c(-c3ccn[nH]3)n1)C[C@H](C)N(C(=O)c1ccc(Cl)cc1F)C2 (single isomer, unassigned)
7.94

Specify reported pKi for the compound shown: Cc1nc2c(c(-c3ccn(CCF)n3)n1)C[C@@H](C)N(C(=O)c1cccc(C(F)(F)F)c1Cl)C2 (single isomer, unassigned)
7.60

Specify reported pKi for the compound shown: Cc1nc2c(c(-c3ccn[nH]3)n1)C[C@H](C)N(C(=O)c1ccc(F)cc1F)C2 (single isomer, unassigned)
7.50

Specify reported pKi for the compound shown: Cc1nc2c(c(-c3ccn[nH]3)n1)C[C@@H](C)N(C(=O)c1cccc(C(F)(F)F)c1C)C2 (single isomer, unassigned)
8.10

* * *

We begin with a simple list: items and their reported remaining activity at 10 µM.
- system: UniProt:Q99572
- test description: P2X7 antagonism in human PBMCs (IL-1β release, ELISA)
- Assay type: cell-based
- run conditions: test compound 10 μM, IL-1β release in human PBMCs, LPS 30 ng/ml + Bz-ATP 0.5 mM, read-out: PBMC 10 μM (% control)
Answer format: value, then unit.

Specify reported remaining activity at 10 µM for the compound shown: Cc1noc(C)c1-c1ncnc2c1CCN(C(=O)c1cccc(C(F)(F)F)c1Cl)C2 [Example 50]
83.5%

Specify reported remaining activity at 10 µM for the compound shown: Cc1nc2c(c(-c3ccn[nH]3)n1)CC(C)N(C(=O)c1cccc(C)c1C)C2 (centres unmarked) [Example 132]
-0.1%

Specify reported remaining activity at 10 µM for the compound shown: Cc1nc2c(c(-c3ccccn3)n1)CCN(C(=O)c1cccc(Cl)c1Cl)C2 [Example 31]
9.2%

* * *

We begin with a simple list: items and their reported Ki.
- system: P2X7 (Homo sapiens (Human), UniProt Q99572)
- Sequence (Q99572 whole entry): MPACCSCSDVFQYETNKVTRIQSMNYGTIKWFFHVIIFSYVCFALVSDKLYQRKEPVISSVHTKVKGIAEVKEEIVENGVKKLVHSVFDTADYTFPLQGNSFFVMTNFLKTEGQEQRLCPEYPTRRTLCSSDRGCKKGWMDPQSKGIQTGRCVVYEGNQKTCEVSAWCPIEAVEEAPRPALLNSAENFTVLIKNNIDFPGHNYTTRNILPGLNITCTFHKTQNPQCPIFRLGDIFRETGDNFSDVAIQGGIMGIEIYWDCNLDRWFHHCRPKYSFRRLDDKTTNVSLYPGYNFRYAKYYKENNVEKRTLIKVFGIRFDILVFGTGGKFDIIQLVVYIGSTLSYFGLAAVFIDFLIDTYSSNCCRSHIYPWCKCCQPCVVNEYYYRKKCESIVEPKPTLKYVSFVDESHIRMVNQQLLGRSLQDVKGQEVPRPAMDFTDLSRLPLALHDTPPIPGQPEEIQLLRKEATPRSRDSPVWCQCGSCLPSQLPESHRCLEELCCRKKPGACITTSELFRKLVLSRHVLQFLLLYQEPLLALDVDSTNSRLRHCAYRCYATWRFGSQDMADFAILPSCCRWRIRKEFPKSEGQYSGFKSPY
- test description: Radioligand binding, human P2X7-1321N1 cell membranes, tracer tritiated A-804598
- run conditions: human P2X7-1321N1 membranes; 1 hour at 4° C.; IC50 corrected for tracer concentration and affinity
Please give a number only; it is taken to be in nM.

O=C(c1cccc(Cl)c1Cl)N1CCc2c(ncnc2-c2ccccn2)C1 | 37.2
O=C(c1cccc(C(F)(F)F)c1Cl)N1CCc2c(ncnc2-c2ccn[nH]2)C1 | 20
O=C(c1cccc(Cl)c1Cl)N1CCc2c(ncnc2-c2cnccn2)C1 | 63.1
O=C(c1cccc(C(F)(F)F)c1Cl)N1CCc2c(ncnc2-c2nccs2)C1 | 50.1
Cc1nc2c(c(-c3cscn3)n1)CCN(C(=O)c1cccc(C(F)(F)F)c1Cl)C2 | 63.1

Specify reported Ki for the compound shown: Cc1nc2c(c(-c3ccn[nH]3)n1)CCN(C(=O)c1cccc(C(F)(F)F)c1Cl)C2
16.4

Specify reported Ki for the compound shown: Cc1nc2c(c(-c3ccn[nH]3)n1)CC(C)N(C(=O)c1ccccc1Cl)C2 (stereo not drawn)
200

Specify reported Ki for the compound shown: CC1Cc2c(nc(N)nc2-c2ccn[nH]2)CN1C(=O)c1cccc(C(F)(F)F)c1Cl (stereo not drawn)
22.4

Specify reported Ki for the compound shown: Cc1nc2c(c(-c3[nH]ncc3F)n1)CCN(C(=O)c1cccc(C(F)(F)F)c1Cl)C2
39.8

* * *

We begin with a simple list: items and their reported pIC50.
- system: P2X7 (Homo sapiens (Human), UniProt Q99572)
- test description: Ca2+ flux (FLIPR) in 1321N1 cells expressing recombinant human P2X7 channel
- Type: cell-based
- run conditions: 250 μM BzATP, Calcium-4 dye
Lab note: report pIC50 as minus log10 of the concentration in molar units, number only.

Past entries and their recorded results:
CC1Cc2c(nc(N)nc2-c2ccn[nH]2)CN1C(=O)c1cccc(C(F)(F)F)c1Cl (stereo not shown) | 6.50
O=C(c1cccc(C(F)(F)F)c1Cl)N1CCc2c(nc(C(F)(F)F)nc2-c2ccn[nH]2)C1 | 7.18
Cc1nc2c(c(-c3ccn[nH]3)n1)C[C@H](C)N(C(=O)c1ccc(F)cc1F)C2 (single isomer, unassigned) | 7.19
Cc1nc2c(c(-c3ccccc3)n1)CCN(C(=O)c1cccc(C(F)(F)F)c1Cl)C2 | 6.58
O=C(c1cccc(C(F)(F)F)c1Cl)N1CCc2c(ncnc2-c2ccccn2)C1 | 7.55

Specify reported pIC50 for the compound shown: Cc1nc2c(c(-c3ccn[nH]3)n1)CC(C)N(C(=O)c1cccc(C#N)c1C)C2 (stereo not shown)
6.35

Specify reported pIC50 for the compound shown: Cc1nc2c(c(-c3ccn[nH]3)n1)CC(C)N(C(=O)c1ccccc1Cl)C2 (stereo not shown)
6.78

Specify reported pIC50 for the compound shown: O=C(c1ccc(F)cc1Cl)N1CCc2c(ncnc2-c2ccn[nH]2)C1
6.55

Specify reported pIC50 for the compound shown: Cc1nc2c(c(-c3ccn[nH]3)n1)CCN(C(=O)c1cccc(C(F)(F)F)c1Cl)C2
8.10

Specify reported pIC50 for the compound shown: Cc1nc2c(c(-c3cscn3)n1)CCN(C(=O)c1cccc(C(F)(F)F)c1Cl)C2
7.46

Specify reported pIC50 for the compound shown: Cc1nc2c(c(-c3ccn[nH]3)n1)C[C@H](C)N(C(=O)c1ccc(Cl)cc1F)C2 (single isomer, unassigned)
7.76

Specify reported pIC50 for the compound shown: O=C(c1cccc(C(F)(F)F)c1Cl)N1CCc2c(ncnc2-n2cnnc2)C1
7.92
